# EXPERIMENTAL_SYSTEM: recombinant human PAD4 (human, UniProt Q9UM07 1-663)
# Sequence (Q9UM07 whole entry): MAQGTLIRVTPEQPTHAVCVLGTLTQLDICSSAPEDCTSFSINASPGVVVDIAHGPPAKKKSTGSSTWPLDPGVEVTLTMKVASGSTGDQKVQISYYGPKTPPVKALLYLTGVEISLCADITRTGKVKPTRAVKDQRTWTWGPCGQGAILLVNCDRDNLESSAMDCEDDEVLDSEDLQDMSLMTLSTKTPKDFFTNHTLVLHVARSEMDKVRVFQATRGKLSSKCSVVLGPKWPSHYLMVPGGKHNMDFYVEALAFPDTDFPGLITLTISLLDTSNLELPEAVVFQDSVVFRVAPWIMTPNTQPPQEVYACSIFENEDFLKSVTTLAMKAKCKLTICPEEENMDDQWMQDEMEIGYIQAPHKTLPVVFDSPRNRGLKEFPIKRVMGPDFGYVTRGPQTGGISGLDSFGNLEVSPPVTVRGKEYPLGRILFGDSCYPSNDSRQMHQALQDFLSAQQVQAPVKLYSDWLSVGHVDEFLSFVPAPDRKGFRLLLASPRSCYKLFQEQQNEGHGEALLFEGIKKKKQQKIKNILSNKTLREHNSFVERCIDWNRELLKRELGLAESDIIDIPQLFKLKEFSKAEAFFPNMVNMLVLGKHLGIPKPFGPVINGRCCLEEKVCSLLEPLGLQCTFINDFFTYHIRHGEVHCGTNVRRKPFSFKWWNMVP
# ASSAY_PROCEDURE: cell-based or functional assay
Square brackets hold non-standard residues; d marks the D form. Orn(fluoroacetimidoyl) = N=C(CF)NCCC[C@H](N)C(=O)O
# Lookup of reported conversion of 0708-30 by PAD4, 100 µM inhibitor (0 µM: 81) keyed by entry
Entry rule: numbers only, all in %.

| BINDER | UNIT_ANNOTATION | MEASURED_NUMBER |
| --- | --- | --- |
| Ac-KHD[Orn(fluoroacetimidoyl)]DFL-NH2 (SMILES CC(=O)N[C@@H](CCCCN)C(=O)N[C@@H](Cc1c[nH]cn1)C(=O)N[C@@H](CC(=O)O)C(=O)N[C@@H](CCCNC(=N)CF)C(=O)N[C@@H](CC(=O)O)C(=O)N[C@@H](Cc1ccccc1)C(=O)N[C@@H](CC(C)C)C(N)=O) [0748-25FA] | % | 12 |
| Ac-KFD[Orn(fluoroacetimidoyl)]DFI-NH2 (SMILES CC[C@H](C)[C@H](NC(=O)[C@H](Cc1ccccc1)NC(=O)[C@H](CC(=O)O)NC(=O)[C@H](CCCNC(=N)CF)NC(=O)[C@H](CC(=O)O)NC(=O)[C@H](Cc1ccccc1)NC(=O)[C@H](CCCCN)NC(C)=O)C(N)=O) [0743-58FA] | % | 10 |
| Ac-KLH[Orn(fluoroacetimidoyl)]EWM-NH2 (SMILES CSCC[C@H](NC(=O)[C@H](Cc1c[nH]c2ccccc12)NC(=O)[C@H](CCC(=O)O)NC(=O)[C@H](CCCNC(=N)CF)NC(=O)[C@H](Cc1c[nH]cn1)NC(=O)[C@H](CC(C)C)NC(=O)[C@H](CCCCN)NC(C)=O)C(N)=O) [0748-17FA] | % | 18 |
| Ac-KWH[Orn(fluoroacetimidoyl)]DFF-NH2 (SMILES CC(=O)N[C@@H](CCCCN)C(=O)N[C@@H](Cc1c[nH]c2ccccc12)C(=O)N[C@@H](Cc1c[nH]cn1)C(=O)N[C@@H](CCCNC(=N)CF)C(=O)N[C@@H](CC(=O)O)C(=O)N[C@@H](Cc1ccccc1)C(=O)N[C@@H](Cc1ccccc1)C(N)=O) [0748-09FA] | % | 13 |

Identify conversion of 0708-30 by PAD4, 100 µM inhibitor (0 µM: 81) associated with the binder Ac-HFD[Orn(fluoroacetimidoyl)]EWI-NH2 (SMILES CC[C@H](C)[C@H](NC(=O)[C@H](Cc1c[nH]c2ccccc12)NC(=O)[C@H](CCC(=O)O)NC(=O)[C@H](CCCNC(=N)CF)NC(=O)[C@H](CC(=O)O)NC(=O)[C@H](Cc1ccccc1)NC(=O)[C@H](Cc1c[nH]cn1)NC(C)=O)C(N)=O) [0748-01FA] 12
